Form field: EC50 (one value per entry).
Assay System: T1, human GPC3 on stably transfected SK-HEP-1 cells (human, UniProt P51654 25-554)
T1 construct: whole, on cells; also called SK-HEP-1::human GPC3
T1 sequence (P51654 25-554 limits assumed): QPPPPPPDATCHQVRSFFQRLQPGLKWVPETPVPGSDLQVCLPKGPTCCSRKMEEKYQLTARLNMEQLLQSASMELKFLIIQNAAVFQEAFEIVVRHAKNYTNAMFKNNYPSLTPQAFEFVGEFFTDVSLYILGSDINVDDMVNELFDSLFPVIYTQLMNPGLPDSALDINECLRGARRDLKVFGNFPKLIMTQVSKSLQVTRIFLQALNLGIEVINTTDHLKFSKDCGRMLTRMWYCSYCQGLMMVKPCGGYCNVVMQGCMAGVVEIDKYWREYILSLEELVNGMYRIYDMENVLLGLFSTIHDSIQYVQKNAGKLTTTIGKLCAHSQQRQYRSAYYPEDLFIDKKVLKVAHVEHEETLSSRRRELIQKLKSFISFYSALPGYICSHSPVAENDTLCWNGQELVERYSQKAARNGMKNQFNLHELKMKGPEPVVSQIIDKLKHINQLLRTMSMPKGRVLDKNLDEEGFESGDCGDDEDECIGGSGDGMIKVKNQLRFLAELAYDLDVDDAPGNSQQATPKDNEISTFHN
Method Description: MSD-based (ECL) cell binding assay on transfected SK-HEP-1 cells
Note to self: number, then unit, no commentary.

As a guide, the following entries are already answered.
Binder	EC50
lipocalin mutein of SEQ ID NO: 15 (designed binder, hNGAL (Lcn2) mutein; also called optimized GPC3 specific lipocalin mutein) QDSTSDLIPAPPLSKVPLQQNFQDNQFQGKWYVVGRAGNVGLREDKDPPKMRATIYELKEDKSYDVTGVRFGEKKIKYSIGTFVPGSQPGEFTLGQIKSQPGDTANLVRVVSTNYNQHAMVFFKEVYQNREIFFIILYGRTKELTSELKENFIRFSKSLGLPENHIVFPVPIDQAIDGSAWSHPQFEK	1.6 nM
lipocalin mutein of SEQ ID NO: 3 (designed binder, hNGAL (Lcn2) mutein; also called non-optimized GPC3-specific Lcn2 mutein; mother clone) QDSTSDLIPAPPLSKVPLQQNFQDNQFHGKWYVVGVAGNAMLREDKDPLKMRATIYELKEDKSYNVTGVSFWRKKCHYKIGTFVPGSQPGEFTLGDIKSGPGQTSNLVRVVSTNYNQHAMVFFKEVRQNREWFAITLYGRTKELTSELKENFIRFSKSLGLPENHIVFPVPIDQCIDGSAWSHPQFEK	24.3 nM

Input line: // lookup EC50 for lipocalin mutein of SEQ ID NO: 16 (designed binder, hNGAL (Lcn2) mutein; also called optimized GPC3 specific lipocalin mutein) QDSTSDLIPAPPLSKVPLQQNFQDNQFQGKWYVVGRAGNVGLREDKDPPKMRATIYELKEDKSYDVTGVRFDSKKVTYSIGTFVPGSQPGEFTLGQIKSEPGNTANLVRVVSTNYNQHAMVFFKEVYQNREIFFIILYGRTKELTSELKENFIRFSKSLGLPENHIVFPVPIDQAIDGSAWSHPQFEK
Output line: 2.2 nM

Input line: // lookup EC50 for lipocalin mutein of SEQ ID NO: 10 (designed binder, hNGAL (Lcn2) mutein; also called optimized GPC3 specific lipocalin mutein) QDSTSDLIPAPPLSKVPLQQNFQDNQFQGKWYVVGRAGNGALREDKDPPKMWATIYELKEDKSYDVTNVRFARKKCVYSIGTFVPGSQPGEFTLGPIKSEPGNTASLVRVVSTNYNQHAMVFFKEVYQNREIFFIILYGRTKELTSELKENFIRFSKSLGLPENHIVFPVPIDQCIDGSAWSHPQFEK
Output line: 0.8 nM

Input line: // lookup EC50 for lipocalin mutein of SEQ ID NO: 14 (designed binder, hNGAL (Lcn2) mutein; also called optimized GPC3 specific lipocalin mutein) QDSTSDLIPAPPLSKVPLQQNFQDNQFQGKWYVVGRAGNVGLREDKDPPKMWATIYELKEDKSYDVTNVRFAGKKVKYTIGTFVPGSQPGEFTLGQIKSEPGNTATLVRVVSTNYNQHAMVFFKEVYQNREIFFITLYGRTKELTSELKENFIRFSKSLGLPENHIVFPVPIDQAIDGSAWSHPQFEK
Output line: 9.5 nM

Input line: // lookup EC50 for lipocalin mutein of SEQ ID NO: 7 (designed binder, hNGAL (Lcn2) mutein; also called optimized GPC3 specific lipocalin mutein) QDSTSDLIPAPPLSKVPLQQNFQDNQFQGKWYVVGVAGNGMLREDKDPLKMRATIYELKEDKSYDVTSVAFRNKKCHYKIGTFVPGSQPGEFTLGQIKSGPGETSNLVRVVSTNYNQHAMVFFKEVRQNREWFFITLYGRTKELTSELKENFIRFSKSLGLPENHIVFPVPIDQCIDGSAWSHPQFEK
Output line: 2.5 nM

Input line: // lookup EC50 for lipocalin mutein of SEQ ID NO: 5 (designed binder, hNGAL (Lcn2) mutein; also called optimized GPC3 specific lipocalin mutein) QDSTSDLIPAPPLSKVPLQQNFQDNQFQGKWYVVGVAGNALLREDKDPLKMRATIYELKEDKSYDVTVVSFWRKKCHYKIGTFVPGSQPGEFTLGDIKSGPGQTSNLVRVVSTNYNQHAMVFFKEVRQNREWFAITLYGRTKELTSELKENFIRFSKSLGLPENHIVFPVPIDQCIDGSAWSHPQFEK
Output line: 24.1 nM
